Target Desc: Ectonucleotide pyrophosphatase/phosphodiesterase family member 1 (Homo sapiens)
Sequence (P22413 whole entry): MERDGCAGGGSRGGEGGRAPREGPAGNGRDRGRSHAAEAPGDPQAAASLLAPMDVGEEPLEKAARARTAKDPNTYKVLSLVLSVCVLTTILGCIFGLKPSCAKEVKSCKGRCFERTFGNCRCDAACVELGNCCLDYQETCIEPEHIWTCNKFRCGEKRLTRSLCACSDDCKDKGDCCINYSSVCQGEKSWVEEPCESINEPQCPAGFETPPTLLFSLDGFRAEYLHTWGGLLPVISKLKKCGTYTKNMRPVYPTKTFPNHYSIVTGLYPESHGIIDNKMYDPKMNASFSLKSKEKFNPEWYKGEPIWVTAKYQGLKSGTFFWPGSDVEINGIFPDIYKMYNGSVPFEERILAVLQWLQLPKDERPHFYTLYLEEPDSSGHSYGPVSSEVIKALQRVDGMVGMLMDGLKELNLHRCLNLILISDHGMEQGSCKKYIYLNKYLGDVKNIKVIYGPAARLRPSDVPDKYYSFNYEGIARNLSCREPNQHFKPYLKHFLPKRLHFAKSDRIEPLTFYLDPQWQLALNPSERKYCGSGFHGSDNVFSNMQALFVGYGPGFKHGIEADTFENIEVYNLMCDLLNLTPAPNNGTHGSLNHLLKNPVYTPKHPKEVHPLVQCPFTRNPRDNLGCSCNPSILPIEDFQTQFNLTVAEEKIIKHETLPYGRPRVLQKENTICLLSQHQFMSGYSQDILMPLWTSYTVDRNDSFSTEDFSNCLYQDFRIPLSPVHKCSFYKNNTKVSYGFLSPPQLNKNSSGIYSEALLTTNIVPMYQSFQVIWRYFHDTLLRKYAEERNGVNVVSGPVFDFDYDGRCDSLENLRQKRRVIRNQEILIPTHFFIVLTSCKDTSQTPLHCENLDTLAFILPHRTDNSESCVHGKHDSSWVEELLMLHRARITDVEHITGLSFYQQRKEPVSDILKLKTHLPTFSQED
Assay Info: Inhibition of human recombinant ENPP1 at pH 7.5
Measured Property: IC50 (nM)
Give your result in nM as a bare value.

Input line: Need IC50, item `COc1cc2nccc(Nc3ccc(CC(=O)NO)cc3)c2cc1OC`
Output line: 89
